# Tested on: all Gram-negative strains
# assay.details: Mean MIC and therapeutic index, Gram-negative strains
# Format: cell-based
# condition.info: 7 Gram-negative strains of Table 3
# Procedure: The antimicrobial activity of the peptides was determined against both Gram-positive and -negative bacteria including 14 MDR P. aeruginosa clinical isolates from Bhumibol Adulyadej Hospital (Tables 1 and 3). The minimal inhibitory concentration (MIC) of each peptide was measured according to a modification of the National Committee for Clinical Laboratory Standards (NCCLS) broth microdilution method as previously described. […]
Where a SMILES comes first, the peptide text is derived from it.
measure: GM (Gr.− strains): geometric mean of MIC values from all Gram-negative strains (µg/mL)
Kindly provide the numeric value in µg/mL only, without the unit symbol.

[[record]]
compound = "CC[C@H](C)[C@H](NC(=O)[C@H](CCCNC(=N)N)NC(=O)[C@H](CCCCN)NC(=O)[C@H](C)NC(=O)[C@@H](NC(=O)[C@@H](N)CCCCN)[C@@H](C)CC)C(=O)N[C@@H](Cc1c[nH]c2ccccc12)C(=O)N[C@@H](CCCCN)C(=O)N[C@H](C(=O)N[C@@H](CC(C)C)C(=O)N[C@@H](CCCNC(=N)N)C(=O)N[C@@H](CCCNC(=N)N)C(=O)N[C@@H](CCCNC(=N)N)C(N)=O)[C@@H](C)CC [PA-13] (H-KIAKRIWKILRRR-NH2; N-terminus assumed)"
scale_unit = "µg/mL"
value = 15.90


From here, focus on the item given below.
What value of GM (Gr.− strains): geometric mean of MIC values from all Gram-negative strains on all Gram-negative strains does CC[C@H](C)[C@H](NC(=O)[C@H](CCCNC(=N)N)NC(=O)[C@H](CCCCN)NC(=O)[C@H](C)NC(=O)[C@@H](NC(=O)[C@@H](N)CCCCN)[C@@H](C)CC)C(=O)N[C@@H](Cc1c[nH]c2ccccc12)C(=O)N[C@@H](CCCCN)C(=O)N[C@H](C(=O)N[C@@H](CC(C)C)C(=O)N[C@@H](CCCNC(=N)N)C(=O)N[C@@H](CCCNC(=N)N)C(=O)N[C@@H](CCCNC(=N)N)C(=O)N[C@@H](CC(C)C)C(N)=O)[C@@H](C)CC [PA-14] (H-KIAKRIWKILRRRL-NH2; N-terminus assumed) have? 14.23

These measurements were taken from paper PMC7272617.
